- protocol description: Clearance in iv dosed Balb/c mouse administered as single dose measured after 0.08 to 4 hrs by HPLC/MS analysis
- Assay type: ADME, organism-based
- condition set: in vivo
Would you mind labelling by clearance? At or over 20 mL/min/kg is Yes, under is No.

Is clearance for CN1CCOc2c1cnn1c(-c3ccc4cccc(NC5CCCCC5)c4n3)nnc21 at or above 20 mL/min/kg?
Yes

# bool: clearance of CN1CCOc2c1cnn1c(-c3ccc4c(F)c(F)cc(NCC5(F)CCNCC5)c4n3)nnc21 >= 20 mL/min/kg
No

Assess whether reported clearance for COCCN1CCOc2c1cnn1c(-c3ccc4cccc(NCC5CCNCC5)c4n3)nnc21 sits at 20 mL/min/kg or higher.
Yes

Form field: clearance at least 20 mL/min/kg? Entry: CN1CCOc2c1cnn1c(-c3ccc4c(F)ccc(NCC5(F)CCNCC5)c4n3)nnc21
No

Check the entry CN1CCOc2c1cnn1c(-c3ccc4ccnc(NCC5(F)CCNCC5)c4c3)nnc21 : does clearance equal or exceed 20 mL/min/kg?
Yes

* * *

- experimental system: Serine/threonine-protein kinase pim-1 (Homo sapiens)
- protocol description: Inhibition of His tagged human recombinant PIM1 using PIM tide (ARKRRRHPSGPPTA) as substrate incubated for 1 hr by fluorescence based assay
observable: pIC50
Formally, pIC50 is defined as -log10 of the concentration c, with c in mol/L.

Specify measured pIC50 for CN1CCOc2c1cnn1c(-c3ccc4cccc(NC5CCCCC5)c4n3)nnc21 .
7.49

Entry CN1CCOc2c1cnn1c(-c3ccc4cccc(NC5CCNCC5)c4n3)nnc21 needs its pIC50 filled in; supply it.
7.92

# return recorded pIC50 for entry CN1CCOc2c1cnn1c(C(=O)Nc3ccccc3OCC3CCNCC3)nnc21
5.96

Please supply the value of reported pIC50 for the item CN1CCOc2c1cnn1c(-c3ccc4cccc(NCC5CCNCC5)c4n3)nnc21
7.85

* * *

- experimental system: Serine/threonine-protein kinase pim-1 (Homo sapiens, UniProt P11309)
- protocol description: Inhibition of PIM1 in human NCI-H1299 cells assessed as reduction in BAD phosphorylation at Ser-112 residue incubated for 4 hrs by ELISA
- Assay type: cell-based
- condition set: read-out: EC50
Record form. Attribute: EC50. Fill in for each entry.
# unit: nM | format: bare number

Return value of EC50 for input CN1CCOc2c1cnn1c(-c3ccc4ccnc(NCC5CCNCC5)c4c3)nnc21 , no commentary.
2510

Indicate the recorded EC50 value for this compound: CN1CCOc2c1cnn1c(-c3ccc4ccnc(NC5CCCCC5)c4c3)nnc21
110

Fill in reported EC50 for this entry: CN1CCOc2c1cnn1c(-c3ccc4c(F)ccc(NCC5(F)CCNCC5)c4n3)nnc21
283

Dear colleague, please send me the reported EC50 for CN1CCOc2c1cnn1c(-c3ccc4cccc(NCC5CCNCC5)c4c3)nnc21 when you can.
865

Fill in EC50 for record CN1CCOc2c1cnn1c(-c3ccc4cccc(NC5CCCCC5)c4c3)nnc21
265

Write down EC50 measured for item CN1CCOc2c1cnn1c(-c3ccc4cccc(NCC5CCOCC5)c4n3)nnc21
325

Read the entry CN1CCOc2c1cnn1c(-c3ccc4cccc(NC5CCNCC5)c4n3)nnc21 and write its reported EC50.
1380

Identify EC50 associated with the compound CN1CCOc2c1cnn1c(-c3ccc4cccc(NC5CCOCC5)c4n3)nnc21
322

Identify EC50 associated with the compound CN1CCC(CNc2cccc3ccc(-c4nnc5c6c(cnn45)N(C)CCO6)nc23)CC1
179

In one line, give reported EC50 of the entry CCN1CCOc2c1cnn1c(-c3ccc4cccc(NCC5CCNCC5)c4n3)nnc21 .
780

* * *

- experimental system: Serine/threonine-protein kinase pim-2 (Homo sapiens, UniProt Q9P1W9)
- protocol description: Inhibition of His tagged human recombinant PIM2 using PIM tide (ARKRRRHPSGPPTA) as substrate incubated for 1 hr by fluorescence based assay
Task for the reader: assign each of the following compounds its reported IC50.
Supply the numeric figure in µM, leaving out any unit text.

Consider the compound CN1CCOc2c1cnn1c(-c3ccc4cccc(NCC5CCOCC5)c4c3)nnc21 . State its measured IC50.
9.94

Supply reported IC50 belonging to this compound: CN1CCOc2c1cnn1c(-c3ccc4cccc(NCC5CCNCC5)c4n3)nnc21
4.26

Give IC50 for the following compound: CN1CCC(CNc2cccc3ccc(-c4nnc5c6c(cnn45)N(C)CCO6)nc23)CC1
4.25

Item CN1CCOc2c1cnn1c(-c3ccc4ccc(Cl)c(NCC5(F)CCNCC5)c4n3)nnc21 : provide IC50
0.696

Using the record for CN1CCOc2c1cnn1c(-c3ccc4cc(Cl)cc(NCC5(F)CCNCC5)c4n3)nnc21 , state its measured IC50.
1.27

Output measured IC50 for this item: CN1CCOc2c1cnn1c(-c3ccc4cccc(NCC5(F)CCNCC5)c4n3)nnc21
5.53

Item CN1CCOc2c1cnn1c(-c3ccc4cccc(NC(=O)C5CCNCC5)c4n3)nnc21 : provide IC50
3.74

Return IC50 for the following compound: CCN1CCOc2c1cnn1c(-c3ccc4cccc(NCC5CCNCC5)c4n3)nnc21
1.93

Give IC50 for the following compound: CCCN1CCOc2c1cnn1c(-c3ccc4cccc(NCC5CCNCC5)c4n3)nnc21
4.01

Supply measured IC50 of CN1CCOc2c1cnn1c(-c3ccc4cccc(NC5CCNCC5)c4n3)nnc21 in your reply.
0.69

Determine its reported IC50: CN1CCOc2c1cnn1c(-c3ccc4c(F)c(F)cc(NCC5(F)CCNCC5)c4n3)nnc21
3.59

Determine its reported IC50: CN1CCOc2c1cnn1c(-c3ccc4cccc(NC5CCOCC5)c4n3)nnc21
2.47

// Input: CN1CCOc2c1cnn1c(-c3ccc4ccnc(NCC5CCNCC5)c4c3)nnc21 . Output its IC50 only.
0.027

Annotate the compound CN1CCOc2c1cnn1c(-c3ccc4cccc(NCC5CCNCC5)c4c3)nnc21 with its measured IC50.
4.87

Give me measured IC50, please, for this compound: CN1CCOc2c1cnn1c(-c3ccc4cccc(NCC5CCOCC5)c4n3)nnc21
6.21

Answer with the recorded IC50 for the compound listed here: CN1CCOc2c1cnn1c(-c3ccc4cccc(NC5CCCCC5)c4n3)nnc21
3.33

Report IC50 for CN1CCOc2c1cnn1c(-c3ccc4ccnc(NC5CCCCC5)c4c3)nnc21
1.1

State, in one line, measured IC50 of CN1CCOc2c1cnn1c(-c3ccc4cccc(NC5CCCCC5)c4c3)nnc21
8.04

* * *

Give measured pIC50 for each item. Keep answers brief.
pIC50: −log10 of the molar value.

Fetch value of pIC50 on Voltage-gated inwardly rectifying potassium channel KCNH2 (Homo sapiens, UniProt Q12809) for COCCN1CCOc2c1cnn1c(-c3ccc4cccc(NCC5CCNCC5)c4n3)nnc21 .
< 4.70

Please indicate recorded pIC50 of CN1CCOc2c1cnn1c(-c3ccc4cccc(NC5CCCCC5)c4c3)nnc21 measured with Voltage-gated inwardly rectifying potassium channel KCNH2 (Homo sapiens, UniProt Q12809).
5.22

Report its pIC50 with Voltage-gated inwardly rectifying potassium channel KCNH2 (Homo sapiens, UniProt Q12809) as the test system: CN1CCOc2c1cnn1c(-c3ccc4ccnc(NCC5(F)CCNCC5)c4c3)nnc21
< 4.70

Fill in: pIC50 on Voltage-gated inwardly rectifying potassium channel KCNH2 (Homo sapiens, UniProt Q12809), entry CN1CCOc2c1cnn1c(-c3ccc4cccc(NC5CCCCC5)c4n3)nnc21
< 4.70

Jot down pIC50 (Voltage-gated inwardly rectifying potassium channel KCNH2 (Homo sapiens, UniProt Q12809)) of CN1CCOc2c1cnn1c(-c3ccc4c(F)ccc(NCC5(F)CCNCC5)c4n3)nnc21 .
< 4.70

Report pIC50 from Voltage-gated inwardly rectifying potassium channel KCNH2 (Homo sapiens, UniProt Q12809) testing of CN1CCOc2c1cnn1c(-c3ccc4ccc(Cl)c(NCC5(F)CCNCC5)c4n3)nnc21
5.68

// fetch pIC50 for CN1CCOc2c1cnn1c(-c3ccc4c(F)c(F)cc(NCC5(F)CCNCC5)c4n3)nnc21 ; system: Voltage-gated inwardly rectifying potassium channel KCNH2 (Homo sapiens, UniProt Q12809)
< 4.70

Provide the reported pIC50 (system: Voltage-gated inwardly rectifying potassium channel KCNH2 (Homo sapiens, UniProt Q12809)) for CN1CCC(CNc2cccc3ccc(-c4nnc5c6c(cnn45)N(C)CCO6)nc23)CC1
< 4.70

Under Voltage-gated inwardly rectifying potassium channel KCNH2 (Homo sapiens, UniProt Q12809): report pIC50 of CN1CCC(Nc2cccc3ccc(-c4nnc5c6c(cnn45)N(C)CCO6)nc23)CC1 .
< 4.70

* * *

For each of the molecules below, state its IC50.
- experimental system: Serine/threonine-protein kinase pim-1 (Homo sapiens, UniProt P11309)
- protocol description: Inhibition of His tagged human recombinant PIM1 using PIM tide (ARKRRRHPSGPPTA) as substrate incubated for 1 hr by fluorescence based assay

Provide IC50 value for the following molecule: CN1CCOc2c1cnn1c(-c3ccc4cccc(NCC5CCOCC5)c4c3)nnc21
20 nM

Give the measured IC50 for CN1CCOc2c1cnn1c(-c3ccc4cccc(NCC5(F)CCNCC5)c4n3)nnc21
21 nM

State its IC50 for this molecule: CN1CCOc2c1cnn1c(-c3ccc4ccnc(NC5CCCCC5)c4c3)nnc21
26 nM

Could you please provide reported IC50 for CN1CCOc2c1cnn1c(-c3ccc4cccc(N5CCC(N)CC5)c4n3)nnc21 ? Thanks!
38 nM

Identify IC50 associated with the molecule CN1CCOc2c1cnn1c(-c3cccc(-c4cccc(NCC5CCNCC5)c4)n3)nnc21
785 nM

Input CN1CCOc2c1cnn1c(-c3ccc4c(F)c(F)cc(NCC5(F)CCNCC5)c4n3)nnc21 , output reported IC50.
18 nM

Report measured IC50; entry is CN1CCOc2c1cnn1c(-c3cccc(-c4cccc(NC5CCNCC5)c4)n3)nnc21
425 nM

Report IC50 for CN1CCOc2c1cnn1c(-c3ccc4cccc(NC5CCCCC5)c4c3)nnc21
46 nM

Provide measured IC50 value, entry: CN1CCOc2c1cnn1c(-c3ccc4cc(Cl)cc(NCC5(F)CCNCC5)c4n3)nnc21
30 nM
